- TARGET_ENTITY: human muscarinic M2 receptor (Homo sapiens)
- Sequence (P08172 whole entry): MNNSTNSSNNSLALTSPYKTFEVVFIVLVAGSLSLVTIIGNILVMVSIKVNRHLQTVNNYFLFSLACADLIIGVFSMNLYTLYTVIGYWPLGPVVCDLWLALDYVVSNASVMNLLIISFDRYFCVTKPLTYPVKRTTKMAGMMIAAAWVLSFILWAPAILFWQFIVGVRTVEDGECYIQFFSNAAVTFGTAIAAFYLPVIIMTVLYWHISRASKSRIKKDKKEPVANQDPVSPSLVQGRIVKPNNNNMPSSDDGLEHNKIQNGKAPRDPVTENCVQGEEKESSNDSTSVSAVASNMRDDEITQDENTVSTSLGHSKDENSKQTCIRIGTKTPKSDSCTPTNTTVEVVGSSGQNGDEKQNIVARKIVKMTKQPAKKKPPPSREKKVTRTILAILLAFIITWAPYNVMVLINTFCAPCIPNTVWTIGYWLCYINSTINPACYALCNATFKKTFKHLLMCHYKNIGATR
- TEST_NAME: Alphascreen Surefire phospho-ERK1/2 functional assay, M2
- CONDITION_INFO: CHO, read-out: % Emax cf. ACh, M2, CHO cells stably expressing human M2; relative to ACh
Recorded Emax, one value per entry.
Numbers only here, please. The scale is %.

Answered cases to consult:
# MOLECULE, Emax [%]
data = [
    ("COC(=O)N1CCC2(CC(N3CCC(c4c(C)cnn4C)CC3)C2)C1 (single isomer, unassigned) [1-57 Isomer 2]", 7),
    ("CCOC(=O)N1CCC2(CC(N3CCC(c4cscn4)CC3)C2)C1 (single isomer, unassigned) [1-50 Isomer 2]", 20),
    ("CCOC(=O)N1CCC2(CC(N3CCC(c4cc(C)cnc4OC)CC3)C2)C1 (single isomer, unassigned) [3-12 Isomer 2]", 2),
    ("CCOC(=O)N1CCC2(CC(N3CCC([C@@H]4CCCN4C(=O)OC)CC3)C2)C1 (single isomer, unassigned) [2-12 Isomer 2]", 9),
    ("CCOC(=O)N1CCC2(CC(N3CCC([C@H]4CCCN4C(=O)NC)CC3)C2)C1 (single isomer, unassigned) [2-18 Isomer 2]", 1),
    ("CCOC(=O)N1CCC2(CC(N3CCC(c4ccc[nH]c4=O)CC3)C2)C1 (single isomer, unassigned) [3-2 Isomer 1]", 7),
    ("CCOC(=O)N1CCC2(CC(N3CCC(N4CCCC(F)(F)C4)CC3)C2)C1 (single isomer, unassigned) [4-13 Isomer 2]", 10),
    ("COC(=O)N1CCC2(CC(N3CCC(n4cc(C)cn4)CC3)C2)C1 (single isomer, unassigned) [1-42 Isomer 2]", 27),
    ("CCOC(=O)N1CCC2(CC(N3CCC([C@@H]4CCCN4C(=S)CC)CC3)C2)C1 (single isomer, unassigned) [2-58 Isomer 2]", 45),
    ("CCOC(=O)N1CCC2(CC(N3CCC([C@@H]4CCCN4C(=O)NC4CC4)CC3)C2)C1 (single isomer, unassigned) [2-29 Isomer 2]", 5),
]

Specify measured Emax for CCOC(=O)N1CCC2(CC(N3CCC([C@@H]4CCCN4C(=O)CC)CC3)C2)C1 (single isomer, unassigned) [2-7 Isomer 2] .
13

Tell me its Emax given CCOC(=O)N1CCC2(CC(N3CCC([C@@H]4CCCN4C(=O)C4CC4)CC3)C2)C1 (single isomer, unassigned) [2-8 Isomer 2] as the entry.
3

Data credit: patent US9926297B2
